Listed here: items and their measured pIC50.
Target: T1, β-catenin (UniProt P35222 1-781, limits assumed)
T1 construct: also called beta-catenin
T1 sequence (looked up): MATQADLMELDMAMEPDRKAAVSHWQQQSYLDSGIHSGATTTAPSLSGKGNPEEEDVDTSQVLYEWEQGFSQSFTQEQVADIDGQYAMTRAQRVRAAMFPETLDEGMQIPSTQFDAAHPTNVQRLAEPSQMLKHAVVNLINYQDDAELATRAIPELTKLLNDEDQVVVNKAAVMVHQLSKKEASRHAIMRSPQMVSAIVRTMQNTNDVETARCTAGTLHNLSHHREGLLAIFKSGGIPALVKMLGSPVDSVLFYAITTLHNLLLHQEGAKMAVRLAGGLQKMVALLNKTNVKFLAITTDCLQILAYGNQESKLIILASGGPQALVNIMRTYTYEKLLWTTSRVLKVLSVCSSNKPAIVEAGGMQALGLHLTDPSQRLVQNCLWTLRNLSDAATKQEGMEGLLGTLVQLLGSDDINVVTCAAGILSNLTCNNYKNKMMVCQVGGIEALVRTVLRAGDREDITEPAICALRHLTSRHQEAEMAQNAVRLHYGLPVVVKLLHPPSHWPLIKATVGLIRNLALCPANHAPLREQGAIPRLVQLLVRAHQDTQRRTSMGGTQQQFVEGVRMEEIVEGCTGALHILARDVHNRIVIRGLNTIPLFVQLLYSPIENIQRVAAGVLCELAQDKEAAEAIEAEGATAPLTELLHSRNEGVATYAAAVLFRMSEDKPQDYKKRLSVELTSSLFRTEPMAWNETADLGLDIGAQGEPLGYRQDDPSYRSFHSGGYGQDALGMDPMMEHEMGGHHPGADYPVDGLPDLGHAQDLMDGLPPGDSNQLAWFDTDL
Experiment: ALPHA Screen (BCL9/β-catenin);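 also: bead proximity readout with the polypeptide linked to donor beads and β-catenin fixed on acceptor beads, their binding bringing the beads close enough to emit signal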
pIC50: −log10 of the molar value. Bridges are numbered along the chain shown (N, C = ends). Where no end group is shown, it is not given here. [ ]: non-standard residue; d: D form. 2Nal = N[C@@H](Cc1ccc2ccccc2c1)C(=O)O; S5 = C=CCCC[C@](C)(N)C(=O)O; Nle = CCCC[C@H](N)C(=O)O; βAla = NCCC(=O)O
Property Name: pIC50

Binder	Property Name	Result Number
QLEHRERSL[Nle]TLR[Nle]IQRML[2Nal] [SEQ ID NO: 67]	pIC50	5.97
Ac-RE[S5]SLQ[S5]LR[S5]IQR[S5]L[2Nal][βAla][βAla]-NH2 (staple 10-14, 3-7; not fully specified; printed as REXaa1SLQXaa2LRXaa3IQRXaa4L(2-Nal)(β-Ala)(β-Ala)) [SEQ ID NO: 40]	pIC50	5.62
RERSLQTLRDIQRML[2Nal] [SEQ ID NO: 59]	pIC50	5.23
